Biological target: 3-oxoacyl-[acyl-carrier-protein] synthase 3 (Mycobacterium tuberculosis (strain CDC 1551 / Oshkosh))
Sequence (P9WNG2 whole entry): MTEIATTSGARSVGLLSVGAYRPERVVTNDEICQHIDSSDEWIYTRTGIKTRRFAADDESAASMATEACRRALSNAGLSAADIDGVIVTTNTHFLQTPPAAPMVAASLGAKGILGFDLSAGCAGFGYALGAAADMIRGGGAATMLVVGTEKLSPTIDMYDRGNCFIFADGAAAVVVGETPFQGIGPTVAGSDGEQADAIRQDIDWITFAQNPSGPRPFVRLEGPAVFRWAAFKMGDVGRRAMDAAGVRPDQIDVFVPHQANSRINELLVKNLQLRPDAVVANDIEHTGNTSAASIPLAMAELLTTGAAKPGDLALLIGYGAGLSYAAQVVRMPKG
Assay: FabH Enzyme Assay
Settings: pH 7; 37 °C
measured.quantity: pIC50
One number for each entry, as −log10 of the molar value.

[[record]]
compound = "CCCCCCCCSSCCNC(=O)CCNC(=O)C(O)C(C)(C)OP(=O)(O)OP(=O)(O)OCC1OC(n2cnc3c(N)ncnc32)C(O)C1OP(=O)(O)O (centres undefined) [Octyl-CoA disulfide 4]"
measured_quantity = "pIC50"
endpoint_value = 4.52


Moving on to the next compound.
(Q) I would be grateful if you could share the reported pIC50 for CCCCCCCCCCSSCCNC(=O)CCNC(=O)C(O)C(C)(C)OP(=O)(O)OP(=O)(O)OCC1OC(n2cnc3c(N)ncnc32)C(O)C1OP(=O)(O)O (centres undefined) [Decyl-CoA disulfide 5] .
(A) 5.92

----------
Can you tell me pIC50 for the items I'm about to list?
Molecular target: 3-oxoacyl-[acyl-carrier-protein] synthase 3 (Escherichia coli)
Sequence (C3TDZ2 whole entry): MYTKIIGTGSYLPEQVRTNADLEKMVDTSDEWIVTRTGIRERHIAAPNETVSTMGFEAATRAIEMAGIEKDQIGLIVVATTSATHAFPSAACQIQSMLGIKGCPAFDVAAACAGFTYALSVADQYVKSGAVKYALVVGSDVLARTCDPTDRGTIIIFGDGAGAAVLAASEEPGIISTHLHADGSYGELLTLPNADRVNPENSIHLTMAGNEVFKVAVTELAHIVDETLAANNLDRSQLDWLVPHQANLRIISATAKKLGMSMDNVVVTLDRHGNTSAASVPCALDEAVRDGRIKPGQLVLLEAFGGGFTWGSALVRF
Assay: FabH Enzyme Assay
Conditions: pH 7; 37 °C
pIC50: −log10 of the molar value.

# count of solved cases: 3
[[record]]
compound = "CCCCCCCCSSCCNC(=O)CCNC(=O)C(O)C(C)(C)OP(=O)(O)OP(=O)(O)OCC1OC(n2cnc3c(N)ncnc32)C(O)C1OP(=O)(O)O (centres undefined) [Octyl-CoA disulfide 4]"
endpoint_value = "< 3.52"

[[record]]
compound = "CCCCCCCCCCSSCCNC(=O)CCNC(=O)C(O)C(C)(C)OP(=O)(O)OP(=O)(O)OCC1OC(n2cnc3c(N)ncnc32)C(O)C1OP(=O)(O)O (centres undefined) [Decyl-CoA disulfide 5]"
endpoint_value = "< 3.52"

[[record]]
compound = "CSSCCNC(=O)CCNC(=O)C(O)C(C)(C)OP(=O)(O)OP(=O)(O)OCC1OC(n2cnc3c(N)ncnc32)C(O)C1OP(=O)(O)O (centres undefined) [Methyl-CoA disulfide 1]"
endpoint_value = 4.24


Would you kindly look at the next entry?
(Q) Look up pIC50: CCCCSSCCNC(=O)CCNC(=O)C(O)C(C)(C)OP(=O)(O)OP(=O)(O)OCC1OC(n2cnc3c(N)ncnc32)C(O)C1OP(=O)(O)O (centres undefined) [Butyl-CoA disulfide 2]
(A) < 3.52
